Origin of values: paper PMC7248809

Some molecules, each annotated with its measured ipc.
# Procedure Details: Cyclic voltammetry in 0.1 M TBABF4/DMSO
# Measurement Context: cathodic peak current density; TBABF4 0.1 M/DMSO, 100 mV/s
Recorded Metric: ipc

> print(dat)
                                   molecule  recorded.result
1  O=C1C(Cl)=C(NC(Cc2ccc(O)cc2)C(=O)O)C(=O)c2ccccc21 (stereo not drawn) [Compound 4a]   −0.24 mA cm^−2
2  O=C1C=C(NC(Cc2c[nH]c3ccccc23)C(=O)O)C(=O)c2ccccc21 (stereo not drawn) [Compound 3c]   −0.27 mA cm^−2
3  O=C1C(Cl)=C(NC(Cc2c[nH]c3ccccc23)C(=O)O)C(=O)c2ccccc21 (stereo not drawn) [Compound 4c]   −0.27 mA cm^−2
4  CC(C)C(NC1=C(Cl)C(=O)c2ccccc2C1=O)C(=O)O (stereo not drawn) [Compound 4b]   −0.25 mA cm^−2
5  O=C1C=C(NC(Cc2ccc(O)cc2)C(=O)O)C(=O)c2ccccc21 (stereo not drawn) [Compound 3a]   −0.30 mA cm^−2
6  CC(C)C(NC1=CC(=O)c2ccccc2C1=O)C(=O)O (stereo not drawn) [Compound 3b]   −0.30 mA cm^−2
